These data points were gathered from patent US20120316071A1.

Recorded ELISA signal by entry
target: T1, Recombinant Human DLL4 (delta-like protein 4) (human, UniProt Q9NR61 27-524); assay: ELISA, DLL4 coated on plate, Fab at 50 nM (2-fold dilution series), absorbance at 450 nm
T1 construct: Bought recombinant human DLL4 coated on the ELISA plate; also called rHuman DLL4
measured.property: ELISA signal

binder	result
Fab VH5-51_IGHD5-18*01>3_IGHJ4*01 G100K/G104T G24T/S28R/G35V (KT TRV) & V3-4_IGLJ1*01 V91L/S96P S52Y (Fab, V domains shown, Fab; Expressed in E. coli with CH1 (plasmid A, His6 and Flag tags) and lambda CL (plasmid E); also called H:KT TRV & L:LP S52Y) VH: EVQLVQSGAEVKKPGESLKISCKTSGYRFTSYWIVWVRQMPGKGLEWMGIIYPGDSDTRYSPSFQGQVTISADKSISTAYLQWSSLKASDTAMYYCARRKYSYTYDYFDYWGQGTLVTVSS VL: QTVVTQEPSFSVSPGGTVTLTCGLSSGSVSTSYYPSWYQQTPGQAPRTLIYYTNTRSSGVPDRFSGSILGNKAALTITGAQADDESDYYCLLYMGPGISYVFGTGTKVTVL	0.72
Fab VH5-51_IGHD5-18*01>3_IGHJ4*01 G100K/G104T S28R (KT S28R) & V3-4_IGLJ1*01 (wildtype) (Fab, V domains shown, Fab; Expressed in E. coli with CH1 (plasmid A, His6 and Flag tags) and lambda CL (plasmid E); also called H:KT S28R & L:wt) VH: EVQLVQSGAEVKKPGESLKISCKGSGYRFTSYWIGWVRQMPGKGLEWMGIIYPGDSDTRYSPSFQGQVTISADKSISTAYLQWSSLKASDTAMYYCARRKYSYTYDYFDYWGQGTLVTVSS VL: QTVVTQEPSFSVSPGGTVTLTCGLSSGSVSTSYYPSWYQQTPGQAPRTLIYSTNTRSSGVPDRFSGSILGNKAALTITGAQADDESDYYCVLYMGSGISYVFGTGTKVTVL	0.23
Fab VH5-51_IGHD5-18*01>3_IGHJ4*01 G100K/G104T G24T/S28R/G35V (KT TRV) & V3-4_IGLJ1*01 V91L/S96P S52L (Fab, V domains shown, Fab; Expressed in E. coli with CH1 (plasmid A, His6 and Flag tags) and lambda CL (plasmid E); also called H:KT TRV & L:LP S52L) VH: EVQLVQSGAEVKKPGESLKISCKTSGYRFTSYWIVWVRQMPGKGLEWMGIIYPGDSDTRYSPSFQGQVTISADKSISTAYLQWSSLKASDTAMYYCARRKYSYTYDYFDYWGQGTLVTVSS VL: QTVVTQEPSFSVSPGGTVTLTCGLSSGSVSTSYYPSWYQQTPGQAPRTLIYLTNTRSSGVPDRFSGSILGNKAALTITGAQADDESDYYCLLYMGPGISYVFGTGTKVTVL	0.78
Fab VH5-51_IGHD5-18*01>3_IGHJ4*01 G100K/G104T G24L/S28R/G35V (KT LRV) & V3-4_IGLJ1*01 V91L/S96P S52F (Fab, V domains shown, Fab; Expressed in E. coli with CH1 (plasmid A, His6 and Flag tags) and lambda CL (plasmid E); also called G100K/G104T G24L/S28R/G35V & V91L/S96P S52F) VH: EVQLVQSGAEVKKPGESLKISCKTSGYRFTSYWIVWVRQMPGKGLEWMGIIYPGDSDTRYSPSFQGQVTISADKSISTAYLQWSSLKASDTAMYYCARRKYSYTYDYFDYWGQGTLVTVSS VL: QTVVTQEPSFSVSPGGTVTLTCGLSSGSVSTSYYPSWYQQTPGQAPRTLIYFTNTRSSGVPDRFSGSILGNKAALTITGAQADDESDYYCLLYMGPGISYVFGTGTKVTVL	0.69
Fab VH5-51_IGHD5-18*01>3_IGHJ4*01 G100K & V3-4_IGLJ1*01 (wildtype) (Fab, V domains shown, Fab; Expressed in E. coli with CH1 (plasmid A, His6 and Flag tags) and lambda CL (plasmid E); also called G100K & Wildtype) VH: EVQLVQSGAEVKKPGESLKISCKGSGYSFTSYWIGWVRQMPGKGLEWMGIIYPGDSDTRYSPSFQGQVTISADKSISTAYLQWSSLKASDTAMYYCARRKYSYGYDYFDYWGQGTLVTVSS VL: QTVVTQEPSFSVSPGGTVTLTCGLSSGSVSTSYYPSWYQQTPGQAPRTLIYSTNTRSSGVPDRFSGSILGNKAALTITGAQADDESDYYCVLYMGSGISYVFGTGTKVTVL	0.19
